Attribution: ChEMBL document CHEMBL1135683

# study system: Somatostatin receptor type 1 (Homo sapiens, UniProt P30872)
# Sequence (P30872 whole entry): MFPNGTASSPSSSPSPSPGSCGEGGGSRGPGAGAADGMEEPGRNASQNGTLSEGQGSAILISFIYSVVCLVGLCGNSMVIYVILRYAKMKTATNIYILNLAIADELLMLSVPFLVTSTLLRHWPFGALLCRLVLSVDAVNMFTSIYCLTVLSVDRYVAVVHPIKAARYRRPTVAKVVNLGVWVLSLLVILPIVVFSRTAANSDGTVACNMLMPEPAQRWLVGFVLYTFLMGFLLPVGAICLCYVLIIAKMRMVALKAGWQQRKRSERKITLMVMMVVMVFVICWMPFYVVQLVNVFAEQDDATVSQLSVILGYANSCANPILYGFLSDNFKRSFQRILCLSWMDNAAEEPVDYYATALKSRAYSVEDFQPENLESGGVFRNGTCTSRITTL
test readout: Ki (µM)
Expressed in µM, but write only the number.

Item C[C@@H](c1c[nH]c2ccccc12)[C@@H](NC(=O)N1CCC(n2c(=O)[nH]c3ccccc32)CC1)C(=O)N[C@@H](CCCCN)C(=O)OC(C)(C)C : provide Ki
2.39

====

# study system: UniProtKB P31391
# Sequence (P31391 whole entry): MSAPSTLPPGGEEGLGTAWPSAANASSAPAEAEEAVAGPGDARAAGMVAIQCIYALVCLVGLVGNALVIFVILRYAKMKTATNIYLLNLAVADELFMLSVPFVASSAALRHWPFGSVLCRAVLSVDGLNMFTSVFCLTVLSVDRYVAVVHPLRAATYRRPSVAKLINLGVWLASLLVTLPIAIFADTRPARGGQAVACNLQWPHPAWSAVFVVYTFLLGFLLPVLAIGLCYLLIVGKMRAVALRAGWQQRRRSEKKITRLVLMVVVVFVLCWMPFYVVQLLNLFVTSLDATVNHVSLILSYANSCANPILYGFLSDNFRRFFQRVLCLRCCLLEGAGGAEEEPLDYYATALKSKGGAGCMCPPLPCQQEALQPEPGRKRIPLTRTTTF
test readout: pKi
Keep in mind that pKi stands for -log10 of concentration in molar terms.

Output reported pKi of the molecule C[C@@H](c1c[nH]c2ccccc12)[C@@H](NC(=O)N1CCC(n2c(=O)[nH]c3ccccc32)CC1)C(=O)N[C@@H](CCCCN)C(=O)OC(C)(C)C on UniProtKB P31391.
7.09

====

# study system: Somatostatin receptor type 3 (Homo sapiens)
# Sequence (P32745 whole entry): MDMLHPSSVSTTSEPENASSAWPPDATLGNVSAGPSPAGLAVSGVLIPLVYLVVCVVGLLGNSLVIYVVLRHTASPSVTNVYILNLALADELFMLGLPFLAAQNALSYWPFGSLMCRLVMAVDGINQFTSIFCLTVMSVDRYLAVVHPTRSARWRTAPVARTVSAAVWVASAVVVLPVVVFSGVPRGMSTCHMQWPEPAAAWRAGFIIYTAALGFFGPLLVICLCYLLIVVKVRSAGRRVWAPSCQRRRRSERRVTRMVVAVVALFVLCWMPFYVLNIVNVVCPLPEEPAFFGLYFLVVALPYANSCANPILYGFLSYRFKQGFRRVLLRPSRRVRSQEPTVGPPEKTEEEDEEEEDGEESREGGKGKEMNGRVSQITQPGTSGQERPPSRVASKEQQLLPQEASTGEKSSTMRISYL
test readout: Ki

Output reported Ki of the molecule C[C@@H](c1c[nH]c2ccccc12)[C@@H](NC(=O)N1CCC(n2c(=O)[nH]c3ccccc32)CC1)C(=O)N[C@@H](CCCCN)C(=O)OC(C)(C)C on Somatostatin receptor type 3 (Homo sapiens).
31 nM

====

# study system: Somatostatin receptor type 5 (Homo sapiens, UniProt P35346)
# Sequence (P35346 whole entry): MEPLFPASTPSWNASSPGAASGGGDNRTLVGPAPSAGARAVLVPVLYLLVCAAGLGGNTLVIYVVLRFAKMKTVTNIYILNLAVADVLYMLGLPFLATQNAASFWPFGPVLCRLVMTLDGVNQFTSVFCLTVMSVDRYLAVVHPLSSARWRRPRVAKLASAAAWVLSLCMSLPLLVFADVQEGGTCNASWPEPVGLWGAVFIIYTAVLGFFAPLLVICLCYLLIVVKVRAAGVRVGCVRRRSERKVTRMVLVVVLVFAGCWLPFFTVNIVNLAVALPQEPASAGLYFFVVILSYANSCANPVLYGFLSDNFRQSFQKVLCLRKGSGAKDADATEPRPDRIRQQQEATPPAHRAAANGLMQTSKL
test readout: pKi
Keep in mind that pKi stands for -log10 of concentration in molar terms.

Item C[C@@H](c1c[nH]c2ccccc12)[C@@H](NC(=O)N1CCC(n2c(=O)[nH]c3ccccc32)CC1)C(=O)N[C@@H](CCCCN)C(=O)OC(C)(C)C : provide pKi
6.79

====

# study system: Angiotensin-converting enzyme (Homo sapiens)
# Sequence (P12821 whole entry): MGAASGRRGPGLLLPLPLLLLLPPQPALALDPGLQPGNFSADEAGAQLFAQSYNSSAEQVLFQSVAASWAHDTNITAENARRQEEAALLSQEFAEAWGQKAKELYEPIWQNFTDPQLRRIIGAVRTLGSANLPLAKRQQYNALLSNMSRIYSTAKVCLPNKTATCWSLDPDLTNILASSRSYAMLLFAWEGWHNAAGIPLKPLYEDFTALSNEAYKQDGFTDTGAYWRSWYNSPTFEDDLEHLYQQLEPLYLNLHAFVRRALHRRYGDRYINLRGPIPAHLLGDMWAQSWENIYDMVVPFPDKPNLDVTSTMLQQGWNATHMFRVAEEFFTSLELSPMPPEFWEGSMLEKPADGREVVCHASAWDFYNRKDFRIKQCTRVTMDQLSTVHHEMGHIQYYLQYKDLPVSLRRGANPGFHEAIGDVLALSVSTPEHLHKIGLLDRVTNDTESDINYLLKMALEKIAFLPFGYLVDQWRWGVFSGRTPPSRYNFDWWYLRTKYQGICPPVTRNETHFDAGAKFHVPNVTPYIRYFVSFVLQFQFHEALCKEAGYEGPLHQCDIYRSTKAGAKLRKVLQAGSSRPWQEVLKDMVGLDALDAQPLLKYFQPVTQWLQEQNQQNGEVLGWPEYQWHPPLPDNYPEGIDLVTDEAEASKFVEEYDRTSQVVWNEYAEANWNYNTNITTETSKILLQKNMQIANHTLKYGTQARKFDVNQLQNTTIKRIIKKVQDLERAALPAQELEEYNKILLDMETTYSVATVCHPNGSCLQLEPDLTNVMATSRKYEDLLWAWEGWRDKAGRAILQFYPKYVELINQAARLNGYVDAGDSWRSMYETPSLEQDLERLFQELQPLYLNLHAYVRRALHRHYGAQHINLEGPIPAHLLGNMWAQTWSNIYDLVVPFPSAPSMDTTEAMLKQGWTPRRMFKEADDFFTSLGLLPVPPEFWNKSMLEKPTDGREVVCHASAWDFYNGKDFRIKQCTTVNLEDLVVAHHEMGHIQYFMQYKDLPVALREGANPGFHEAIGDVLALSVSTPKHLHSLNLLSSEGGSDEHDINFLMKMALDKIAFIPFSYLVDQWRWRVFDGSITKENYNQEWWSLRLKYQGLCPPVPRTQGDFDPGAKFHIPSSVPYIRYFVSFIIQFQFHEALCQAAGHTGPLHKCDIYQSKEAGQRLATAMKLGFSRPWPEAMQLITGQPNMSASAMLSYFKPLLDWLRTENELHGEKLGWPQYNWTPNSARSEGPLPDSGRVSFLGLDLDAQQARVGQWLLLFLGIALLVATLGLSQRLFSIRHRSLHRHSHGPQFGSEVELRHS
test readout: pKi
Keep in mind that pKi stands for -log10 of concentration in molar terms.

Output reported pKi of the molecule O=CC(Cc1ccccc1)NC(CCc1ccccc1)C(=O)O (stereo unspecified) on Angiotensin-converting enzyme (Homo sapiens).
4.30
